All figures here come from paper PMC6263107.

Provide the reported viability at 30 µM of each item.
Test: in vitro
Type: cell-based
Conditions: human, HepG2 cells; 30 µM; percent of cell viability vs DMSO-treated control; read-out: HepG2 cell viability
Give bare numbers, in %.

Before answering, review these 2 worked examples.
{"compound": "COc1cccc(C2c3oc(CO)cc(=O)c3Oc3nc4c(c(N)c32)CCCC4)c1 (stereo not drawn) [KT2d]", "viability at 30 µM (%)": 102}
{"compound": "Cc1ccc(C2c3oc(CO)cc(=O)c3Oc3nc4c(c(N)c32)CCCC4)cc1 (stereo not drawn) [KT2b]", "viability at 30 µM (%)": 107}

Query block: Reported viability at 30 µM for Nc1c2c(nc3c1C(c1ccccc1)c1oc(CO)cc(=O)c1O3)CCCC2 (stereo not drawn) [KT2a] : what is it?
Result block: 105

---

Provide the reported viability at 1 µM of each item.
Test: in vitro
Type: cell-based
Conditions: human, HepG2 cells; 1 µM; percent of cell viability vs DMSO-treated control; read-out: HepG2 cell viability
Numbers only, in %.

{"compound": "Nc1c2c(nc3c1C(c1cccc(Cl)c1)c1oc(CO)cc(=O)c1O3)CCCC2 (stereo not drawn)", "viability at 1 µM, %": 97.6}
{"compound": "Nc1c2c(nc3c1C(c1cccc(Br)c1)c1oc(CO)cc(=O)c1O3)CCCC2 (stereo not drawn)", "viability at 1 µM, %": 101}

Each compound below has a recorded value; state its viability at 1 µM.
1. Nc1c2c(nc3c1C(c1ccccc1)c1oc(CO)cc(=O)c1O3)CCCC2 (stereo not drawn)
2. Nc1c2c(nc3c1C(c1ccccc1Cl)c1oc(CO)cc(=O)c1O3)CCCC2 (stereo not drawn)
3. COc1ccccc1C1c2oc(CO)cc(=O)c2Oc2nc3c(c(N)c21)CCCC3 (stereo not drawn)
4. COc1ccc(C2c3oc(CO)cc(=O)c3Oc3nc4c(c(N)c32)CCCC4)cc1 (stereo not drawn)
5. Cc1ccc(C2c3oc(CO)cc(=O)c3Oc3nc4c(c(N)c32)CCCC4)cc1 (stereo not drawn)

Result block:
1. 96.8
2. 98.6
3. 94.7
4. 95.5
5. 105

Each compound below has a recorded value; state its viability at 1 µM.
1. Nc1c2c(nc3c1C(c1cccc(F)c1)c1oc(CO)cc(=O)c1O3)CCCC2 (stereo not drawn)
2. Nc1c2c(nc3c1C(c1ccc(F)cc1)c1oc(CO)cc(=O)c1O3)CCCC2 (stereo not drawn)

Result block:
[101, 97.4]

---

Assay: in vitro
Format: cell-based
Conditions: human, HepG2 cells; 1 µM; percent of cell viability vs DMSO-treated control; read-out: HepG2 cell viability
Provide the reported viability at 1 µM of each item.
Give bare numbers, in %.

{"compound": "COc1cccc(C2c3oc(CO)cc(=O)c3Oc3nc4c(c(N)c32)CCCC4)c1 (stereo not drawn) [KT2d]", "measurementType": "viability at 1 µM", "resultNumber": 101}
{"compound": "Nc1c2c(nc3c1C(c1c(Cl)cccc1Cl)c1oc(CO)cc(=O)c1O3)CCCC2 (stereo not drawn) [KT2l]", "measurementType": "viability at 1 µM", "resultNumber": 99.9}

Moving on to another compound below.
Query block: Reported viability at 1 µM for Nc1c2c(nc3c1C(c1ccccc1F)c1oc(CO)cc(=O)c1O3)CCCC2 (stereo not drawn) [KT2f] : what is it?
Result block: 108

---

Test: in vitro
Format: cell-based
Details: human, HepG2 cells; 10 µM; percent of cell viability vs DMSO-treated control; read-out: HepG2 cell viability
Provide the reported viability at 10 µM of each item.
Answers are plain numbers, in %.

Before answering, review these 2 worked examples.
{"compound": "Nc1c2c(nc3c1C(c1cccc(F)c1)c1oc(CO)cc(=O)c1O3)CCCC2 (stereo not drawn)", "measurementType": "viability at 10 µM", "resultNumber": 99.1}
{"compound": "Nc1c2c(nc3c1C(c1ccc(F)cc1)c1oc(CO)cc(=O)c1O3)CCCC2 (stereo not drawn)", "measurementType": "viability at 10 µM", "resultNumber": 100}

Moving on to another compound below.
Query block: Reported viability at 10 µM for Nc1c2c(nc3c1C(c1ccccc1)c1oc(CO)cc(=O)c1O3)CCCC2 (stereo not drawn) : what is it?
Result block: 99.3

---

Read-out record for EeAChE (Electrophorus electricus): IC50
Give bare numbers, in nM.

{"molecule": "Nc1c2c(nc3c1C(c1cccc(Br)c1)c1oc(CO)cc(=O)c1O3)CCCC2 (stereo not drawn)", "IC50 (nM)": 740}

Each molecule below has a recorded value; state its IC50.
1. Nc1c2c(nc3c1C(c1ccc(F)cc1)c1oc(CO)cc(=O)c1O3)CCCC2 (stereo not drawn)
2. Nc1c2c(nc3c1C(c1c(Cl)cccc1Cl)c1oc(CO)cc(=O)c1O3)CCCC2 (stereo not drawn)

Result block:
1. 3440
2. 2120

---

Experiment: in vitro
Type: cell-based
Conditions: human, HepG2 cells; 1000 µM; percent of cell viability vs DMSO-treated control; read-out: HepG2 cell viability
measurementType: viability at 1000 µM
Lab note: write values as number then unit, every time.

{"compound": "Nc1c2c(nc3c1C(c1cccc(Br)c1)c1oc(CO)cc(=O)c1O3)CCCC2 (centres unmarked) [KT2k]", "viability at 1000 µM": "37.2%"}
{"compound": "Nc1c2c(nc3c1C(c1ccc(F)cc1)c1oc(CO)cc(=O)c1O3)CCCC2 (centres unmarked) [KT2h]", "viability at 1000 µM": "55.3%"}
{"compound": "Nc1c2c(nc3c1C(c1cccc(F)c1)c1oc(CO)cc(=O)c1O3)CCCC2 (centres unmarked) [KT2g]", "viability at 1000 µM": "62.6%"}
{"compound": "Nc1c2c(nc3c1C(c1ccccc1)c1oc(CO)cc(=O)c1O3)CCCC2 (centres unmarked) [KT2a]", "viability at 1000 µM": "50.3%"}
{"compound": "Cc1ccc(C2c3oc(CO)cc(=O)c3Oc3nc4c(c(N)c32)CCCC4)cc1 (centres unmarked) [KT2b]", "viability at 1000 µM": "87.9%"}
{"compound": "COc1ccc(C2c3oc(CO)cc(=O)c3Oc3nc4c(c(N)c32)CCCC4)cc1 (centres unmarked) [KT2e]", "viability at 1000 µM": "41.7%"}

Each compound below has a recorded value; state its viability at 1000 µM.
1. COc1cccc(C2c3oc(CO)cc(=O)c3Oc3nc4c(c(N)c32)CCCC4)c1 (centres unmarked) [KT2d]
2. COc1ccccc1C1c2oc(CO)cc(=O)c2Oc2nc3c(c(N)c21)CCCC3 (centres unmarked) [KT2c]

Result block:
1. 65.5%
2. 70.7%
